Where these numbers come from: ChEMBL document CHEMBL3885881

species on record: Rattus norvegicus; assay: DrugMatrix - Regimen: Daily Repeat; type: toxicity, organism-based, Sprague-Dawley; parameters: regimen Daily Repeat, gender Male, age 6-8 weeks; conditions: in vivo, po, 1500 mg/kg, 120 h, tissue Plasma, route oral GAVAGE, dose level High, time 5 day, vehicle .5 % CMC
Below, each of the compounds is paired with its reported TOTAL BILIRUBIN value.
Field format: number, assumed mg/dL, no unit text.

1. O=C1CCc2cc(OCCCCc3nnnn3C3CCCCC3)ccc2N1 : 0.4

Asked: So what does the record say about TOTAL BILIRUBIN for CCOC(=O)[C@H](CCc1ccccc1)N[C@@H](C)C(=O)N1[C@H](C(=O)O)C[C@@H]2CCC[C@@H]21 ?
Given back: 0.27

Asked: # input compound: COC(=O)c1ccc(O)cc1 ; wanted: its TOTAL BILIRUBIN
Given back: 0.27

Asked: Can you look up the measured TOTAL BILIRUBIN of NS(=O)(=O)c1cc2c(cc1Cl)NCNS2(=O)=O [HYDROCHLOROTHIAZIDE] for me?
Given back: 0.2

---

species: Rattus norvegicus; experiment: DrugMatrix - Regimen: Daily Repeat; assay type: toxicity, organism-based, Sprague-Dawley; parameters: regimen Daily Repeat, gender Male, age 6-8 weeks; conditions: in vivo, po, 10 mg/kg, 120 h, tissue Blood, route oral GAVAGE, dose level Low, time 5 day, vehicle .5 % CMC
Measured NEUTROPHIL, listed per entry for reference.
Provide only the numeric value, understood in %.

1) COc1c(C)c2c(c(O)c1C/C=C(\C)CCC(=O)OCCN1CCOCC1)C(=O)OC2 [MYCOPHENOLATE MOFETIL] : 9.33
2) NS(=O)(=O)c1cc2c(cc1Cl)NCNS2(=O)=O [HYDROCHLOROTHIAZIDE] : 10
3) O=C1CN=C(c2ccccc2)c2cc([N+](=O)[O-])ccc2N1 : 8

# next compound below
Asked: # get_value(readout='NEUTROPHIL', item= CC(=O)O[C@]1(C(C)=O)CC[C@H]2[C@@H]3C=C(Cl)C4=CC(=O)CC[C@]4(C)[C@H]3CC[C@@]21C [CHLORMADINONE ACETATE] )
Given back: 8

---

species: Rattus norvegicus; assay: DrugMatrix - Regimen: Daily Repeat; type: toxicity, organism-based, Sprague-Dawley; set-up: regimen Daily Repeat, gender Male, age 6-8 weeks; settings: in vivo, po, 10 mg/kg, 120 h, tissue Blood, route oral GAVAGE, dose level Low, time 5 day, vehicle .5 % CMC
Observed Property: ERYTHROCYTE COUNT (x10E6/uL)
Give the value, in units of x10E6/uL, as a plain number.

Asked: Look at this compound and give its reported ERYTHROCYTE COUNT. O=C1CN=C(c2ccccc2)c2cc([N+](=O)[O-])ccc2N1 [NITRAZEPAM]
Given back: 5.81

Asked: Fill in the blank: the reported ERYTHROCYTE COUNT of NS(=O)(=O)c1cc2c(cc1Cl)NCNS2(=O)=O [HYDROCHLOROTHIAZIDE] is ____.
Given back: 5.92

Asked: // query ERYTHROCYTE COUNT value for entry CC(=O)O[C@]1(C(C)=O)CC[C@H]2[C@@H]3C=C(Cl)C4=CC(=O)CC[C@]4(C)[C@H]3CC[C@@]21C [CHLORMADINONE ACETATE]
Given back: 6.23

Asked: I have this compound here, COc1c(C)c2c(c(O)c1C/C=C(\C)CCC(=O)OCCN1CCOCC1)C(=O)OC2 [MYCOPHENOLATE MOFETIL] , and I need its recorded ERYTHROCYTE COUNT.
Given back: 5.48
